tested_on: trypsin
measurement_notes: Fab TRF, 0.6 ug/mL Fab
Documented TRF signal across a set of binders
// print number alone

- binder: "KB_B01 (scFv, V domains shown) VH: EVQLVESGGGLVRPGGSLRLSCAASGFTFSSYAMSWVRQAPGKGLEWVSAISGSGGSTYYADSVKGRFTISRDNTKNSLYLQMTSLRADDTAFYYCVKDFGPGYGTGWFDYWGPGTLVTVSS VL: AVNWYQQLPGKAPKLLIYAAAGCPRILMRCKQDSDCLAGCVCGPNGFCGTRSGVSDRFSGSKSGTSASLAISGLRSEDEADYYCAAWDDSLRAYVFGTGTKLTVLG"
  TRF signal: 54800
- binder: "KB_C09 (scFv, V domains shown) VH: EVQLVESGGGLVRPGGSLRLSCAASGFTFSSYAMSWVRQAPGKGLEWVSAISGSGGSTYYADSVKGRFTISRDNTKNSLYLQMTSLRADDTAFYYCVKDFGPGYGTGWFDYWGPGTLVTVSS VL: AVNWYQQLPGKAPKLLIYAAGRCPRILMRCKQDSDCLAGCVCGPNGFCGGGSGVPDRFSGSIDSSSNSASLTISGLRAEDEADYYCQSYDSSNHWVFGGGTKLTVLG"
  TRF signal: 46800

// below: TRF signal requested for another binder
What value of TRF signal has been reported for the following binder? KB_A06 (scFv, V domains shown) VH: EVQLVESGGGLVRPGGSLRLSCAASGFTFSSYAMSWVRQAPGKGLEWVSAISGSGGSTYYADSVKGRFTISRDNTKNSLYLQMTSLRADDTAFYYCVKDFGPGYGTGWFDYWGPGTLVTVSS VL: AVNWYQQLPGKAPKLLIYAAVRCPRILMRCKQDSDCLAGCVCGPNGFCGTPSGIPERFSGSIDRSTNSASLTISGLKTEDEADYYCQSYDSSNLNWVFGGGTKLTVLG
108000
